Measured melting point by item

- compound: "COc1ccc2cnc(Nc3ccc(N4CCNCC4)cn3)nc2c1C1CCCC1"
  reported.value: "> 200 °C"
- compound: "Cc1cc(C)c(C2C(=O)OC3(CCN(N(C)C)CC3)C2=O)c(C)c1 (configuration not stated)"
  reported.value: "> 200 °C"
- compound: "COc1ccc(C=C(C#N)c2c[nH]c3ccccc23)cc1OC"
  reported.value: "139 to 141 °C"
- compound: "O=c1nc(-c2cccc(CCCO)n2)sc2ccccc12"
  reported.value: "146 °C"

Query compound follows.
Given the entry `O=c1oc2ccccc2cc1CCN1CCC(Nc2nc3ccccc3n2Cc2ccc(F)cc2)CC1` , report its measured melting point.
168 °C

###

readout.name: melting point

Some molecules with recorded melting point:
- molecule: "Cc1c(C(=O)Nc2ccc(N3CCC(N4CCOCC4)CC3)c([N+](=O)[O-])c2)cnn1-c1ccc(Cl)cc1"
  readout.name: "melting point"
  reported.value: "195 to 200 °C"
- molecule: "COc1cc2[nH]c(S)nc2cc1C"
  readout.name: "melting point"
  reported.value: "> 310 °C"
- molecule: "O=C(CCc1ccccc1)Oc1n[nH]c(=O)c2nc3cc(Cl)cc(Cl)c3c(O)c12"
  readout.name: "melting point"
  reported.value: "> 395 °C"
- molecule: "CCCN(CC1CC1)c1nc(C)nc2c1CCCC2(C)c1ccc(Cl)cc1 (centres undefined)"
  readout.name: "melting point"
  reported.value: "171 to 172 °C"
- molecule: "COc1ccc(N2CCN(c3c(C)c(C)c4c(c3C)C(O)(c3ccoc3)C(C)(C)O4)CC2)cc1 (centres undefined)"
  readout.name: "melting point"
  reported.value: "148 to 149 °C"

Given the entry `c1ccc(Cc2ccc(-c3ccccc3)[nH]2)cc1` , report its measured melting point.
82 to 84 °C

Given the entry `Cc1ccccc1OCc1ccccc1[N+](=O)[O-]` , report its measured melting point.
83 °C

###

Measured melting point by item

- molecule: "CCCCc1nc2cccc(C(=O)O)c2n1Cc1ccc(-n2cccc2-c2nnn[nH]2)cc1"
  readout.name: "melting point"
  reported.value: "165 to 167 °C"
- molecule: "O=C(NC1CCCCC1)c1c(O)c2ccccc2n(Cc2ccc(F)cc2)c1=O"
  readout.name: "melting point"
  reported.value: "168 °C"
- molecule: "CSc1ccc(-c2cnn(C(C)(C)C)c(=O)c2OCCC(C)C)cc1"
  readout.name: "melting point"
  reported.value: "153 to 155 °C"

Given the entry CC(O)(c1nc2ccc([N+](=O)[O-])cc2[nH]1)C(F)(F)F (stereo unspecified) , report its measured melting point.
73 to 75 °C

Given the entry `CCCc1c(SCCCSc2ccc(-c3nnn[nH]3)cc2)ccc(C(C)=O)c1O` , report its measured melting point.
160 to 162 °C

Given the entry `Nc1nc(-c2ccccc2)c(-c2ccnc(Nc3cccc(CO)c3)n2)s1` , report its measured melting point.
214 to 215 °C

Given the entry `CCOC(=O)c1ccccc1N(CC(=O)OC(C)(C)C)C(=O)CN1C(=O)c2ccccc2C1=O` , report its measured melting point.
127 °C

Given the entry COC(=O)CCC(C)C1CCC2C3=CC=C4C(C)(C)C(O)CCC4(C)C3CCC21C (stereo unspecified) , report its measured melting point.
124 to 128 °C

Given the entry `Cc1ccc2c(c1Cl)C(=O)N(C1(C#N)CCCCC1)C2=O` , report its measured melting point.
165 to 168 °C

Given the entry `CCN(CCOc1cccnc1F)CCN1C(=O)c2ccccc2C1=O` , report its measured melting point.
58 to 60 °C

Given the entry CCOC(=O)CN1C(=O)C(N[C@H]2CCCCNC2=O)CCc2ccccc21 (stereo partly specified) , report its measured melting point.
148 to 150 °C

Given the entry `Cc1ccc(CSC[C@H](NC(=O)[C@H](C)CSC(=O)c2ccccc2)C(=O)O)cc1` , report its measured melting point.
115 to 126 °C
